I'd appreciate it if you could supply Growth Rate values for the items below.
system: U2OS; assay: Incucyte cell viability with U2OS; type: toxicity, cell-based; settings: human, 18 h, 10 µM, compound concentration 10 uM, replicate number 1; also: unitless GR value; below 1 slowed growth and below 0 cell loss

Example compounds with recorded Growth Rate:
>  <compound>
CN1C(=O)c2c(nn(Cc3ccc(-c4cccc(F)n4)cc3)c2Nc2ccccc2)N2C1=N[C@@H]1CCC[C@@H]12.O=P(O)(O)O [LENRISPODUN PHOSPHATE]

>  <Growth Rate>
0.67

$$$$
>  <compound>
CCC(C(=O)Nc1ccc(-c2cc3ccccc3s2)c(C(N)=O)c1)c1nccs1 (configuration not stated)

>  <Growth Rate>
0.47

$$$$
>  <compound>
COCCNC1CCC(Nc2cc(-c3csc(NCC4(C#N)CCOCC4)n3)c(Cl)cn2)CC1 (configuration not stated)

>  <Growth Rate>
-0.21

$$$$
>  <compound>
CC/C(=C(\c1ccccc1)c1ccc(OCCN(C)C)cc1)c1ccccc1.O=C(O)CC(O)(CC(=O)O)C(=O)O [TAMOXIFEN CITRATE]

>  <Growth Rate>
0.84

$$$$
>  <compound>
COC[C@@H](CC(C)C)NC1=N/C(=C\c2ccc3ncsc3c2)C(=O)N1C

>  <Growth Rate>
0.43

$$$$

# return Growth Rate for each item in the list
1. Cn1c(=O)n(CCCO)c(=O)c2c1nc(Oc1cccc(Cl)c1)n2Cc1ccc(Cl)cc1
2. CCOC(=O)c1ccc(N2C(=O)C(O)=C(C(=O)c3ccc(OC)cc3)C2c2ccc(F)cc2)cc1 (configuration not stated)
3. C=CC(=O)Nc1cccc(C)c1Nc1ncc2cc(-c3c(Cl)c(OC)cc(OC)c3Cl)ccc2n1
4. O=C1Nc2ccc(C(=O)c3ccco3)cc2C1=Cc1cc(Cl)c(O)c(Cl)c1 [GW406108X]
5. Cc1cc(C2CCCNC2)ccc1Nc1ncc(Br)c(NCc2cccc3c2C(C)(C)C(=O)N3)n1 (configuration not stated)
6. CC(C)n1cnc2c(Nc3cccc(Cl)c3)nc(N[C@H]3CCCC[C@@H]3N)nc21
7. CCC(=O)O[C@@H](OP(=O)(CCCCc1ccccc1)CC(=O)N1C[C@H](C2CCCCC2)C[C@H]1C(=O)[O-])C(C)C.[Na+] (some centres not stated)

1: 0.86; 2: 0.96; 3: 0.32; 4: 0.4; 5: 0.88; 6: -0.12; 7: 0.78

# return Growth Rate for each item in the list
1. COc1cc2ncnc(N[C@H](C)c3ccccc3)c2cc1OC1CCN(S(C)(=O)=O)CC1.Cl
2. Cc1nnc2n1-c1sc(CCC(=O)N3CCOCC3)cc1C(c1ccccc1Cl)=NC2 [APAFANT]
3. O=C1NC(Nc2ccccc2)=N/C1=C\c1ccc2c(c1)OCO2
4. CN1CCC(C#N)(NC(=O)[C@@H](NC(=O)N2CCOCC2)C(C)(C)C)CC1
5. Cc1ccc(-c2cn3nc(C(=O)NC4(c5ccc(F)cc5)CN(C)C4)c(C(C)C)c3c(=O)[nH]2)cc1C

1. 0.8
2. 0.88
3. 0.85
4. 0.98
5. 0.59

Taken from ChEMBL document CHEMBL5303304.
